- tested on: MurA (UniProt Q3YX52)
- Sequence (Q3YX52 whole entry): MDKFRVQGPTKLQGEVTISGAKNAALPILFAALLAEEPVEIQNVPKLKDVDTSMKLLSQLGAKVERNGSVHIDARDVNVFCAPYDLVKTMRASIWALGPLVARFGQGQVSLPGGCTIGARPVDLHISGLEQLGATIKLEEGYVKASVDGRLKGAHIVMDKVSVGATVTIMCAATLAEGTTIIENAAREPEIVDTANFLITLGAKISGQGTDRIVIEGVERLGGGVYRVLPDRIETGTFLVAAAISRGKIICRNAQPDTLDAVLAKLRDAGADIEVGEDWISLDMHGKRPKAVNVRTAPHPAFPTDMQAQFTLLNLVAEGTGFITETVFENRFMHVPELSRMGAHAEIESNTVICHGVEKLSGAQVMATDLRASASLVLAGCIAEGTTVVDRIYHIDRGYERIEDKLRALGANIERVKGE
- test name: relative enzymatic activity vs untreated control (fraction); higher = less inhibition
- details: 100 µM; incubation time: 2 h at 37 C
measured endpoint: relative enzymatic activity
# respond with the number and nothing more

CC(=O)OCC1=C(C(=O)[O-])N2C(=O)C(NC(=O)Cc3cccs3)C2SC1.[Na+] (centres undefined); 0.0754
CON=C(C(=O)NC1C(=O)N2C(C(=O)[O-])=C(CSc3nc(=O)c([O-])nn3C)CSC12)c1csc(N)n1.O.O.O.[Na+].[Na+] (centres undefined); 0.124
O=c1[nH]cc(F)c(=O)[nH]1; 0.673

Read the next record carefully.
Inquiry: Return reported relative enzymatic activity; argument: `CC[C@H]1OC(=O)[C@H](C)[C@@H](O[C@H]2C[C@@](C)(OC)[C@@H](O)[C@H](C)O2)[C@H](C)[C@@H](O[C@@H]2O[C@H](C)C[C@H](N(C)C)[C@H]2O)[C@](C)(O)C[C@@H](C)C(=O)[C@H](C)[C@@H](O)[C@]1(C)O`
Reply text: 0.848

###

- tested on: MurA (UniProt Q3YX52)
- test name: relative enzymatic activity vs untreated control (fraction); higher = less inhibition
- details: 100 µM; incubation time: 2 h at 37 C
Below, each entry is listed with its recorded relative enzymatic activity.
# respond with the number and nothing more

CC1CN(c2c(F)c(N)c3c(=O)c(C(=O)O)cn(C4CC4)c3c2F)CC(C)N1 (centres undefined); 0.603

Inquiry: Return reported relative enzymatic activity; argument: `CN1CCN(c2cc3c(cc2F)c(=O)c(C(=O)O)cn3-c2ccc(F)cc2)CC1.Cl`
Reply text: 0.593

Inquiry: Continue with `CC[C@@H](C)CCCCC(=O)N[C@@H](CCN)C(=O)N[C@H](C(=O)N[C@@H](CCN)C(=O)N[C@H]1CCNC(=O)[C@H]([C@@H](C)O)NC(=O)[C@H](CCN)NC(=O)[C@H](CCN)NC(=O)[C@H](CC(C)C)NC(=O)[C@@H](Cc2ccccc2)NC(=O)[C@@H](CCN)NC1=O)[C@@H](C)O`
Reply text: 0.646

Inquiry: Continue with Cc1ccc(S(=O)(=O)O)cc1.NC1CCN(c2nc3c(cc2F)c(=O)c(C(=O)O)cn3-c2ccc(F)cc2F)C1.O (centres undefined)
Reply text: 0.644

###

- System: DNA gyrase
- test name: relative enzymatic activity vs untreated control (fraction); higher = less inhibition
- details: 100 µM; incubation time: 2 h at 37 C
measured endpoint: relative enzymatic activity
# respond with the number and nothing more

Inquiry: Return reported relative enzymatic activity; argument: `Cc1c(N)nc([C@H](CC(N)=O)NC[C@H](N)C(N)=O)nc1C(=O)N[C@H](C(=O)N[C@H](C)[C@@H](O)[C@H](C)C(=O)N[C@H](C(=O)NCCc1nc(-c2nc(C(=O)NCCCNCCCCN)cs2)cs1)[C@@H](C)O)[C@@H](O[C@@H]1O[C@@H](CO)[C@@H](O)[C@H](O)[C@@H]1O[C@@H]1O[C@H](CO)[C@@H](O)[C@H](OC(N)=O)[C@@H]1O)c1c[nH]cn1`
Reply text: 0.0474

Inquiry: Continue with `O=C(O)c1c(O)c2c([nH]c1=O)CCCC2`
Reply text: 0.374

Inquiry: Continue with `CC(C)(C)CC(C)(C)c1ccc(OCCOCC[N+](C)(C)Cc2ccccc2)cc1.[Cl-]`
Reply text: 0.0482

Inquiry: Continue with `CO/N=C(\C(=O)N[C@@H]1C(=O)N2C(C(=O)O)=C(C[N+]3(C)CCCC3)CS[C@H]12)c1csc(N)n1`
Reply text: 0.284

Inquiry: Continue with `CCCC[P+](CCCC)(CCCC)Cc1ccc(NC(=O)[C@@H](Cc2ccc3ccccc3c2)N=C(NC2CCCCC2)NC2CCCCC2)cc1`
Reply text: 0.0368

Inquiry: Continue with `Nc1nc(/C(=N/O)C(=O)N[C@@H]2C(=O)N3C(C(=O)O)=C(/C=C4\CCN([C@@H]5CCNC5)C4=O)CS[C@H]23)ns1`
Reply text: 0.279

Inquiry: Continue with `O=[N+]([O-])c1ccc(O)c2ncccc12`
Reply text: 0.501

###

- tested on: DNA helicase (UniProt P0ACB1)
- Sequence (P0ACB1 whole entry): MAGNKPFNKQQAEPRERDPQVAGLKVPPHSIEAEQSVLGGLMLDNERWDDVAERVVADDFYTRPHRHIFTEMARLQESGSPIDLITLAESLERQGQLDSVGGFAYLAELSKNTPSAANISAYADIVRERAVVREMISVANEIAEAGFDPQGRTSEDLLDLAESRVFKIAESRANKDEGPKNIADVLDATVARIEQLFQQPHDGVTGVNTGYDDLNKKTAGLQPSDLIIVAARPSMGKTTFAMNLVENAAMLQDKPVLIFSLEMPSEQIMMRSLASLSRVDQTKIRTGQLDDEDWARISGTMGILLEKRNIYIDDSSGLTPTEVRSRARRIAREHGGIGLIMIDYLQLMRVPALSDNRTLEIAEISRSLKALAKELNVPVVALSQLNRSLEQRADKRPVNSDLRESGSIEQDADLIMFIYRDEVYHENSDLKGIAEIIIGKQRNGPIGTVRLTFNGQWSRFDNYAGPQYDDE
- test name: relative enzymatic activity vs untreated control (fraction); higher = less inhibition
- details: 100 µM; incubation time: 2 h at 37 C
We use 0.5 as the dividing line for relative enzymatic activity: on or above the line is true (1), below is false (0).

Nc1nc(/C(=N/O)C(=O)N[C@@H]2C(=O)N3C(C(=O)O)=C(/C=C4\CCN([C@@H]5CCNC5)C4=O)CS[C@H]23)ns1; false (0)
CON=C(C(=O)N[C@@H]1C(=O)N2C(C(=O)OCOC(=O)C(C)(C)C)=C(C=Cc3scnc3C)CS[C@H]12)c1csc(N)n1; false (0)
NCCC(O)C(=O)NC1CC(N)C(OC2OC(CN)C(O)C(O)C2O)C(O)C1OC1OC(CO)C(O)C(N)C1O.O (stereo not drawn); true (1)

Inquiry: Quick check, relative enzymatic activity >= 0.5? `C/C(=C\C(=O)OCCCCCCCCC(=O)O)C[C@@H]1OC[C@H](C[C@@H]2O[C@H]2[C@@H](C)[C@H](C)O)[C@@H](O)[C@H]1O`
Reply text: true (1)

Inquiry: Continue with `NC(=O)N/N=C/c1ccc([N+](=O)[O-])o1`
Reply text: true (1)

Inquiry: Continue with CCN1CCN(C(=O)NC(C(=O)NC2C(=O)N3C2SC(C)(C)C3C(=O)[O-])c2ccccc2)C(=O)C1=O.[Na+] (stereo not drawn)
Reply text: true (1)

Inquiry: Continue with `Cc1cc(=O)c(C(=O)N[C@@H](C(=O)N[C@@H]2C(=O)N3C(C(=O)O)=C(CSc4nnnn4C)CS[C@H]23)c2ccc(O)cc2)c[nH]1`
Reply text: false (0)

Inquiry: Continue with `O=C(NO)c1cn(-c2cccc(C(=O)N3CCC4(CC3)C(=O)NCN4c3ccccc3)c2)nn1`
Reply text: false (0)

###

- tested on: DNA ligase (UniProt B1XA82)
- Sequence (B1XA82 whole entry): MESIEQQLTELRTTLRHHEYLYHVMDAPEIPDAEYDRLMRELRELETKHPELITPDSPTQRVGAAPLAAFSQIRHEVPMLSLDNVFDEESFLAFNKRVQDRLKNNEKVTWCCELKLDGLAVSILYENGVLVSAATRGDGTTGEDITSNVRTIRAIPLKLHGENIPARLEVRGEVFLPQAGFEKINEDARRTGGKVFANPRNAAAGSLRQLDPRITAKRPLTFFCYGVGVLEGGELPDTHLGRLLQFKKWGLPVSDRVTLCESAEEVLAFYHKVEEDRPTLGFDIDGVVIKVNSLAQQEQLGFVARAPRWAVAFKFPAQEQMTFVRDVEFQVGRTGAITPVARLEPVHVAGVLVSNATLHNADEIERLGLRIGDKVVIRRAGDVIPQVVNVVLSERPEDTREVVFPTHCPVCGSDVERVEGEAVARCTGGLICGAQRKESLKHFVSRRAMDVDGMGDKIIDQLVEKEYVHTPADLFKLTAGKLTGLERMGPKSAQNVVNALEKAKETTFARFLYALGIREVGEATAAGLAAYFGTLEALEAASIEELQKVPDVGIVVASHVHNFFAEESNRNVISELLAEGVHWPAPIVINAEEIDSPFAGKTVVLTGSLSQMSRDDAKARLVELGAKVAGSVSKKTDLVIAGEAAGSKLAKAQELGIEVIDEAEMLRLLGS
- test name: relative enzymatic activity vs untreated control (fraction); higher = less inhibition
- details: 100 µM; incubation time: 2 h at 37 C
Below, each entry is listed with its recorded relative enzymatic activity.
# respond with the number and nothing more

CC1(C)SC2C(N3C(=O)C(c4ccccc4)NC3(C)C)C(=O)N2C1C(=O)[O-].[K+] (centres undefined); 1.67
CCCCCCCCCCCCCCCC[N+](C)(C)Cc1ccccc1.[Cl-]; 0.183
COc1ccc(Cc2cnc(N)nc2N)cc1OC; 1.55
O=c1[nH]c(=O)n(C2CC(O)C(CO)O2)cc1F (centres undefined); 1.15

Inquiry: Return reported relative enzymatic activity; argument: COC1C=COC2(C)Oc3c(C)c(O)c4c(O)c(c(C=NN5CCN(C6CCCC6)CC5)c(O)c4c3C2=O)NC(=O)C(C)=CC=CC(C)C(O)C(C)C(O)C(C)C(OC(C)=O)C1C (centres undefined)
Reply text: 0.866

Inquiry: Continue with `O=c1[nH]c(=O)n([C@H]2C[C@H](O)[C@@H](CO)O2)cc1F`
Reply text: 0.789

Inquiry: Continue with O=C([O-])CCC(=O)OCC(NC(=O)C(Cl)Cl)C(O)c1ccc([N+](=O)[O-])cc1.[Na+] (centres undefined)
Reply text: 0.965

Inquiry: Continue with CON=C(C(=O)NC1C(=O)N2C(C(=O)O)=C(C[N+]3(C)CCCC3)CSC12)c1csc(N)n1.[Cl-] (centres undefined)
Reply text: 1.34

Inquiry: Continue with `Cl.O=C1CC2(CCCC2)CC(=O)N1CCCCN1CCN(c2ncccn2)CC1`
Reply text: 0.999

###

Below, each entry is listed with its recorded relative enzymatic activity.
- tested on: MurC (UniProt C4ZRI6)
- Sequence (C4ZRI6 whole entry, looked up): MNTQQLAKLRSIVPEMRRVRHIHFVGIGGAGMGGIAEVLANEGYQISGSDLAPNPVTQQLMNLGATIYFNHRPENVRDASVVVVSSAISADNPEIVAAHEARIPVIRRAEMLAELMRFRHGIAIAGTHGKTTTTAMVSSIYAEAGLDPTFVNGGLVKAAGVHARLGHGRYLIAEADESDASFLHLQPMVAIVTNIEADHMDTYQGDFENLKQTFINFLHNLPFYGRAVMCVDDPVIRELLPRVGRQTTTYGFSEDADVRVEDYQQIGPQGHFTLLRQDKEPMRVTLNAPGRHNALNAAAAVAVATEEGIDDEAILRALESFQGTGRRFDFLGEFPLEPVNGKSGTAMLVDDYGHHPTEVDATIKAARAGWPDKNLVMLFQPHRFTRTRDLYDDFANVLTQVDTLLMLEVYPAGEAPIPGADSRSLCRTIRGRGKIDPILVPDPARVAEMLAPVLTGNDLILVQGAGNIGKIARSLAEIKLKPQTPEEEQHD
- test name: relative enzymatic activity vs untreated control (fraction); higher = less inhibition
- details: 100 µM; incubation time: 2 h at 37 C
# respond with the number and nothing more

Worked cases, relative enzymatic activity given:
CO/N=C(\C(=O)N[C@@H]1C(=O)N2C(C(=O)O)=C(CSC(=O)c3ccco3)CS[C@H]12)c1csc(N)n1; 0.977
NC(C(=O)NC1C(=O)N2C(C(=O)O)=C(Cl)CSC12)c1ccccc1 (configuration not stated); 0.944
NCCC(O)C(=O)NC1CC(N)C(OC2OC(CN)C(O)C(O)C2O)C(O)C1OC1OC(CO)C(O)C(N)C1O.O (configuration not stated); 1.03
CCOC(=O)OC(C)OC(=O)C1N2C(=O)C(NC(=O)C(N)c3ccccc3)C2SC1(C)C.Cl (configuration not stated); 1.01

Inquiry: Return reported relative enzymatic activity; argument: COC1C=COC2(C)Oc3c(C)c(O)c4c(O)c(c(C=NN5CCN(C)CC5)c(O)c4c3C2=O)NC(=O)C(C)=CC=CC(C)C(O)C(C)C(O)C(C)C(OC(C)=O)C1C (configuration not stated)
Reply text: 0.282

Inquiry: Continue with CN(C)C1C(O)=C(C(N)=O)C(=O)C2(O)C(O)=C3C(=O)c4c(O)cccc4C(C)(O)C3C(O)C12.Cl (configuration not stated)
Reply text: 1.09

Inquiry: Continue with `Nc1nc(/C(=N/O)C(=O)N[C@@H]2C(=O)N3C(C(=O)O)=C(/C=C4\CCN([C@@H]5CCNC5)C4=O)CS[C@H]23)ns1`
Reply text: 0.717

Inquiry: Continue with `CC(C)(O/N=C(\C(=O)N[C@@H]1C(=O)N2C(C(=O)O)=C(C[N+]3(CCNC(=O)c4ccc(O)c(O)c4Cl)CCCC3)CS[C@H]12)c1csc(N)n1)C(=O)O`
Reply text: 0.83

Inquiry: Continue with Nc1ncn(C2OC(CO)C(O)C2O)c(=O)n1 (configuration not stated)
Reply text: 0.989

Inquiry: Continue with `Cl.O=C1CC2(CCCC2)CC(=O)N1CCCCN1CCN(c2ncccn2)CC1`
Reply text: 1.07

Inquiry: Continue with `CO/N=C(\C(=O)N[C@@H]1C(=O)N2C(C(=O)O)=C(C[N+]3(C)CCCC3)CS[C@H]12)c1csc(N)n1`
Reply text: 0.892

Inquiry: Continue with `Cc1cc(C(C)(C)CC(C)(C)C)ccc1OCCOCC[N+](C)(C)Cc1ccccc1.[Cl-]`
Reply text: 0.647

Inquiry: Continue with CC1CCC2(C)C(C=O)=CCCC2C1(C)CC1OC(O)C(=O)C12CO2 (configuration not stated)
Reply text: 0.933

Inquiry: Continue with CC1(C)SC2C(N3C(=O)C(c4ccccc4)NC3(C)C)C(=O)N2C1C(=O)[O-].[K+] (configuration not stated)
Reply text: 0.925

Inquiry: Continue with `NC(=O)[C@@H]1C(=O)C[C@@H]2C[C@@H]3Cc4cccc(O)c4C(=O)[C@@H]3C(=O)[C@]2(O)C1=O`
Reply text: 1.17

Inquiry: Continue with `C=CC1=C(C(=O)O)N2C(=O)[C@@H](NC(=O)/C(=N/O)c3csc(N)n3)[C@H]2SC1`
Reply text: 0.917

Inquiry: Continue with `Cc1cc(=O)c(C(=O)N[C@@H](C(=O)N[C@@H]2C(=O)N3C(C(=O)O)=C(CSc4nnnn4C)CS[C@H]23)c2ccc(O)cc2)c[nH]1`
Reply text: 1.18
